- Test system: HT-29
- protocol summary: Compound was tested for biological activity against human colon carcinoma cell line HT-29/219
- Assay type: functional, cell-based
pIC50: −log10 of the molar value.

{"smiles repr": "COc1cc(NS(C)(=O)=O)ccc1Nc1c2ccccc2nc2c(C(=O)NC3CCCCCCC3)cccc12", "pIC50": 5.24}
{"smiles repr": "Nc1c2ccccc2nc2c(C(=O)NC3CCCCCCC3)cccc12", "pIC50": 5.28}
{"smiles repr": "COc1cc(NS(C)(=O)=O)ccc1Nc1c2ccccc2nc2c(C(=O)NC3CC3)cccc12", "pIC50": 5.44}
{"smiles repr": "COc1cc(NS(C)(=O)=O)ccc1Nc1c2ccccc2nc2c(C(=O)NC3CCCCC3)cccc12", "pIC50": 5.33}
{"smiles repr": "Nc1c2ccccc2nc2c(C(=O)NC3CCCCC3)cccc12", "pIC50": 5.25}
{"smiles repr": "COc1cc(NS(C)(=O)=O)ccc1Nc1c2ccccc2nc2c(C(=O)NC34C[C@H]5C[C@@H](C3)C[C@@H](C4)C5)cccc12", "pIC50": 5.01}
{"smiles repr": "Nc1c2ccccc2nc2c(C(=O)NC34C[C@H]5C[C@@H](C3)C[C@@H](C4)C5)cccc12", "pIC50": 6.24}
{"smiles repr": "CN(C)CCNC(=O)c1cccc2c(N)c3ccccc3nc12", "pIC50": 6.85}
{"smiles repr": "Nc1c2ccccc2nc2c(C(=O)NC3CC3)cccc12", "pIC50": 5.24}
{"smiles repr": "COc1cc(NS(C)(=O)=O)ccc1Nc1c2ccccc2nc2c(C(=O)NC3CCCCCCCCCCC3)cccc12", "pIC50": 5.48}
{"smiles repr": "Nc1c2ccccc2nc2c(C(=O)NC3CCCCCCCCCCC3)cccc12", "pIC50": 5.11}
{"smiles repr": "COc1cc(NS(C)(=O)=O)ccc1Nc1c2ccccc2nc2c(C(=O)NCCN(C)C)cccc12", "pIC50": 7.21}
